Where do the numbers come from? From the FLAb antibody collection (doi:10.7554/elife.23156).

B1: scFv; the commonest letter at each place (parent)
chain 1: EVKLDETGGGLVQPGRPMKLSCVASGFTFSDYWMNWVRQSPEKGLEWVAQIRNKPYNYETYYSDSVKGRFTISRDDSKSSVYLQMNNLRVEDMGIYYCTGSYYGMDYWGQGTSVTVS
chain 2: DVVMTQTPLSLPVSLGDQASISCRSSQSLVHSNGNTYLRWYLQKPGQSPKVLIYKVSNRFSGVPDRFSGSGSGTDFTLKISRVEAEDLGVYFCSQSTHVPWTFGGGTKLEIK

variants of: B1; assay: Kd (Tite-Seq); settings: with fluorescein; format: scFv 4-4-20, heavy + light
pKd: −log10 of the molar value.

mut: chain 1 T28A
pKd: 8.80
--
mut: chain 1 M34I V37Q
pKd: 8.74
--
mut: chain 1 G100C Y107E
pKd: ≤ 5.00
--
mut: chain 1 S101Q Y102D Y107P
pKd: ≤ 5.00
--
mut: chain 1 T28S F29S
pKd: 7.57
--
mut: chain 1 T28N N35T
pKd: ≤ 5.00
--
mut: chain 1 G100S M105R
pKd: 6.51
--
mut: chain 1 Y103C G109Y
pKd: ≤ 5.00
--
mut: chain 1 S30F W36D
pKd: ≤ 5.00
--
mut: chain 1 D31P
pKd: ≤ 5.00
--
mut: chain 1 Y103S G109T
pKd: ≤ 5.00
--
mut: chain 1 D31G W33P
pKd: ≤ 5.00
--
mut: chain 1 T28H Y32I
pKd: ≤ 5.00
--
mut: chain 1 T28A W33R M34S
pKd: ≤ 5.00
--
mut: chain 1 D31S W36S
pKd: ≤ 5.00
--
mut: chain 1 V37P
pKd: ≤ 5.00
--
mut: chain 1 Y103C G109D
pKd: ≤ 5.00
--
mut: chain 1 S30T
pKd: 9.13
--
mut: chain 1 M34K V37W
pKd: ≤ 5.00
--
mut: chain 1 Y102Q W108Q
pKd: ≤ 5.00
--
mut: chain 1 S30F N35H
pKd: ≤ 5.00
--
mut: chain 1 Y102H
pKd: 8.40
--
mut: chain 1 S101K G104W M105V
pKd: ≤ 5.00
--
mut: chain 1 G100A Y102R G109C
pKd: ≤ 5.00
--
mut: chain 1 Y32N M34E
pKd: 7.68
--
mut: chain 1 D31G N35Q
pKd: ≤ 5.00
--
mut: chain 1 S101F W108E
pKd: ≤ 5.00
--
mut: chain 1 S101F G104Q
pKd: ≤ 5.00
--
mut: chain 1 Y32S N35H
pKd: ≤ 5.00
--
mut: chain 1 S30M V37E
pKd: 7.97
--
mut: chain 1 Y107V W108Y
pKd: 9.16
--
mut: chain 1 Y103P W108M
pKd: ≤ 5.00
--
mut: chain 1 D31T W33L
pKd: ≤ 5.00
--
mut: chain 1 N35H W36S
pKd: ≤ 5.00
--
mut: chain 1 D31C N35Y
pKd: ≤ 5.00
--
mut: chain 1 S30C W36E
pKd: ≤ 5.00
--
mut: chain 1 D106A Y107I
pKd: 5.18
--
mut: chain 1 Y107A
pKd: 5.13
--
mut: chain 1 S30P
pKd: 8.99
--
mut: chain 1 Y102M M105T W108T
pKd: ≤ 5.00
--
mut: chain 1 M34Q N35S
pKd: ≤ 5.00
--
mut: chain 1 D31S M34G
pKd: ≤ 5.00
--
mut: chain 1 T28D S30P
pKd: 8.82
--
mut: chain 1 T28N W33Y
pKd: ≤ 5.00
--
mut: chain 1 Y107V W108D
pKd: ≤ 5.00
--
mut: chain 1 D106N G109N
pKd: ≤ 5.00
